// data source = PubChem BioAssay

System: F380Y/beta4
Assay Comment: modulators of BK channel variants, profiling panel, selectivity assay, cell-based, U2OS BacMam, thallium flux, beta subunits (AID 1259406);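 also: initial slope of Thallos dye fluorescence rise after thallium is added; log ratio against the mean of 0.3% DMSO vehicle wells on the same plate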
Experimental Conditions: at 30 µM
Activity calls are given as the source filed them.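 The calls were made as follows: active = thallium flux through the channel raised or lowered by more than 3 SD from vehicle-only wells, actives on both sides; inactive = the rest.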
Possible outcomes: label 1 = active, label 0 = inactive

>  <Compound>
Cc1ccc(-c2cc(C(F)(F)F)nn2-c2ccc(S(N)(=O)=O)cc2)cc1

>  <Assigned Class>
label 0

$$$$
>  <Compound>
COc1cc(NC(C)CCCN)c2ncccc2c1 (centres undefined)

>  <Assigned Class>
label 0

$$$$
>  <Compound>
Nc1nc(N)c2nc(-c3ccccc3)c(N)nc2n1

>  <Assigned Class>
label 0

$$$$
>  <Compound>
CC(=O)OCC(=O)[C@@]12OC(C)(C)O[C@@H]1C[C@H]1[C@@H]3C[C@H](F)C4=CC(=O)C=C[C@]4(C)[C@@]3(F)[C@@H](O)C[C@@]12C

>  <Assigned Class>
label 0

$$$$
>  <Compound>
CC(C)(C)NCC(O)c1cc(O)cc(O)c1 (centres undefined)

>  <Assigned Class>
label 0

$$$$
>  <Compound>
COCCOC(=O)C1=C(C)NC(C)=C(C(=O)OC(C)C)C1c1cccc([N+](=O)[O-])c1 (centres undefined)

>  <Assigned Class>
label 1

$$$$
>  <Compound>
NS(=O)(=O)c1cc(C2(O)NC(=O)c3ccccc32)ccc1Cl (centres undefined)

>  <Assigned Class>
label 0

$$$$
>  <Compound>
COc1cc2nc(N(C)CCCNC(=O)C3CCCO3)nc(N)c2cc1OC (centres undefined)

>  <Assigned Class>
label 0

$$$$
>  <Compound>
CC[C@H](C)C(=O)O[C@H]1C[C@H](O)C=C2C=C[C@H](C)[C@H](CC[C@@H](O)C[C@@H](O)CC(=O)O)[C@H]21

>  <Assigned Class>
label 0

$$$$
>  <Compound>
CCCNC(C)C(=O)Nc1ccccc1C (centres undefined)

>  <Assigned Class>
label 0

$$$$
>  <Compound>
CC(=O)CCCCn1c(=O)c2c(ncn2C)n(C)c1=O

>  <Assigned Class>
label 0

$$$$
>  <Compound>
NC(=O)c1cnccn1

>  <Assigned Class>
label 0

$$$$
>  <Compound>
C[C@@H]1O[C@@H](OC[C@H]2O[C@@H](Oc3c(-c4ccc(O)c(O)c4)oc4cc(O)cc(O)c4c3=O)[C@H](O)[C@@H](O)[C@@H]2O)[C@H](O)[C@H](O)[C@H]1O

>  <Assigned Class>
label 0

$$$$
>  <Compound>
CC1Cc2ccccc2N1NC(=O)c1ccc(Cl)c(S(N)(=O)=O)c1 (centres undefined)

>  <Assigned Class>
label 0

$$$$
